Would you kindly list pKd for each of these binders?
biological target: PTPN3, P26045; test: holdup assay; set-up: key: below the threshold = too weak to quantify, mostly under pKd 3.1 to 4; settings: plain residues with an end cap or a label only (N-terminal biotin on a linker: ado-ado)
Sequence (P26045 505-587): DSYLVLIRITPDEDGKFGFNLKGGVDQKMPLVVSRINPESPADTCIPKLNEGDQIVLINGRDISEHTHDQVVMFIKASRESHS
One number for each entry.

Example entries begin here.
# BINDER, pKd
rows = [
    ("DYSNLRETDI [ADRA1D, P25100]", 4.57),
    ("IGHEDLETAV [DGKI, O75912]", 5.02),
    ("HLSTRQGTCV [ATRNL1, Q5VV63]", 4.54),
    ("VKQYADVEGF [HNRNPK, P61978;P61978-2]", 3.93),
    ("ADEMICITTL [CACNA1D, Q01668]", 4.62),
]

Please give pKd, item by item, for the list that follows.
1. TNSKQGETTV [FZD1, Q9UP38]
2. PLATCDETSI [SEMA4F, O95754]
3. SGDGKTSVWI [GJC1, P36383]

[4.79, 4.72, 4.06]

For each listed entry, give its pKd.
1. THREVKFTSL [CD46, P15529]
2. ATKDKKITTV [EXOC4, Q96A65]

1. 4.83
2. 4.31

Give me pKd for each of these binders, listed below.
1. PLPPEEESWV [GAS2L2, Q8NHY3]
2. DFKHTKSFII [JAM2, P57087]

1. 4.75
2. 3.81

Just for reference, paper PMC9482650 is where these values come from.
